- Test system: Escherichia coli
- test_method_notes: Binding affinity to Escherichia coli sliding clamp assessed as gibbs free energy change by ITC analysis
Where a SMILES comes first, the peptide text is derived from it. [ ]: non-standard residue; d: D form. Oic = O=C(O)[C@@H]1C[C@@H]2CCCC[C@@H]2N1; Cha = N[C@@H](CC1CCCCC1)C(=O)O; Pip = O=C(O)[C@@H]1CCCCN1
measurement_type: deltaG (kcal/mol)

compound	units_symbol	deltaG
CC(=O)N[C@@H](CCC(N)=O)C(=O)N[C@@H](CC1CCCCC1)C(=O)N[C@@H](CC(=O)O)C(=O)N[C@@H](CC(C)C)C(=O)N1CCCC[C@H]1C(=O)N[C@@H](CC(C)C)C(=O)O (Ac-Q[Cha]DL[Pip]L-OH)	kcal/mol	-9
CC(=O)N[C@@H](CCC(N)=O)C(=O)N[C@@H](CC1CCCCC1)C(=O)N[C@@H](CC(=O)O)C(=O)N[C@@H](CC(C)C)C(=O)N1[C@H](C(=O)N[C@@H](CC(C)C)C(=O)O)C[C@@H]2CCCC[C@@H]21 (Ac-Q[Cha]DL[Oic]L-OH)	kcal/mol	-9.9
